- target_entity: JAK3 enzyme (Homo sapiens)
- Sequence (P52333 1-1124): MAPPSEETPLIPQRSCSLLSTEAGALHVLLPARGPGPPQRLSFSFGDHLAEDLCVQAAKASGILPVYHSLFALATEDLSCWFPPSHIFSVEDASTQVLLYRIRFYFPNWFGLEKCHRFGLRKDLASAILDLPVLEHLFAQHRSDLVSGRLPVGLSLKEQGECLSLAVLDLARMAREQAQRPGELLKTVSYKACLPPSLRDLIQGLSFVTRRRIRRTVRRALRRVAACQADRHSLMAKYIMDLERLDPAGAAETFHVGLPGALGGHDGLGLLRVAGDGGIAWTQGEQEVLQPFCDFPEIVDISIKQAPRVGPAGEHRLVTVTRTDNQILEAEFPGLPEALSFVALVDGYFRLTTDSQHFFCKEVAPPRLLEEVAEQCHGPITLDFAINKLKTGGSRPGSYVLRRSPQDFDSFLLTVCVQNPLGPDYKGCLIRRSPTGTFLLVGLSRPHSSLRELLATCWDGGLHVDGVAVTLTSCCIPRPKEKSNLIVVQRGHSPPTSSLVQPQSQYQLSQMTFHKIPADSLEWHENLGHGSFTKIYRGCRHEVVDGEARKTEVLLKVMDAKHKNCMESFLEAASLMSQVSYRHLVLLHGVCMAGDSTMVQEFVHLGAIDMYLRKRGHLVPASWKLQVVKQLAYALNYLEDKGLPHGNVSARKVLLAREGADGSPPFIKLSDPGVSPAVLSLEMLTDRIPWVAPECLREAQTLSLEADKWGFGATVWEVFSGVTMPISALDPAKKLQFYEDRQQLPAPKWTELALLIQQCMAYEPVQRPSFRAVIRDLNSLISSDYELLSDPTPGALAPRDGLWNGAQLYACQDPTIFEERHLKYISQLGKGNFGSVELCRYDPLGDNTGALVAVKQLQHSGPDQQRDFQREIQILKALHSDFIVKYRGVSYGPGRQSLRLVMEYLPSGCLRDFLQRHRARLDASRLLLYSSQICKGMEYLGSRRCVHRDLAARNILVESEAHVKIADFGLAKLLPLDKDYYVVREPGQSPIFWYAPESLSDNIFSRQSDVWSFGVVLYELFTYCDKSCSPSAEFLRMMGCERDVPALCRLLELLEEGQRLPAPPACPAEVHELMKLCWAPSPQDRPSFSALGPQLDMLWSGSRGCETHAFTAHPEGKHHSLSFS
- experiment_summary: JAK Caliper Enzyme Assay at 1 mM ATP
- Type: biochemical
parameter: IC50 (µM)

In the examples that follow, each entry is paired with its recorded IC50.
>  <molecule>
C=CC(=O)N1CCN(c2cnc3[nH]cc(C(=O)N[C@H]4CCO[C@H]4C)c3n2)CC1(C)C [Example 166]

>  <parameter>
IC50

>  <quantitative_readout>
0.058

$$$$
>  <molecule>
C=CC(=O)N1CCC(Nc2cnc3[nH]cc(C(=O)NCC(F)(F)C(F)(F)F)c3n2)CC1 [Example 179]

>  <parameter>
IC50

>  <quantitative_readout>
0.018

$$$$

A: C=CC(=O)N1CCN(c2cnc3[nH]cc(C(=O)NCC4CCCC4)c3n2)CC1 [Example 266]
B: C=CC(=O)N1CCN(c2cnc3[nH]cc(C(=O)NCC4(O)CCC(F)(F)CC4)c3n2)C[C@@H]1CC(C)C [Example 302]
Query string: Form field 'greater IC50' accepts A or B ; which applies? Pick one and reply with its label.
Result string: B
(B: 0.385 µM, A: 0.022 µM)
